Known pIC50 of a selection of compounds
- test system: NOX2 (Homo sapiens)
- Construct: Used for the NOX2 activity assay was human leukemia 60 cells (HL-60), which are widely, universally used to assess NOX2 activity; endogenous in cells
- Sequence (P04839 2-570 limits assumed): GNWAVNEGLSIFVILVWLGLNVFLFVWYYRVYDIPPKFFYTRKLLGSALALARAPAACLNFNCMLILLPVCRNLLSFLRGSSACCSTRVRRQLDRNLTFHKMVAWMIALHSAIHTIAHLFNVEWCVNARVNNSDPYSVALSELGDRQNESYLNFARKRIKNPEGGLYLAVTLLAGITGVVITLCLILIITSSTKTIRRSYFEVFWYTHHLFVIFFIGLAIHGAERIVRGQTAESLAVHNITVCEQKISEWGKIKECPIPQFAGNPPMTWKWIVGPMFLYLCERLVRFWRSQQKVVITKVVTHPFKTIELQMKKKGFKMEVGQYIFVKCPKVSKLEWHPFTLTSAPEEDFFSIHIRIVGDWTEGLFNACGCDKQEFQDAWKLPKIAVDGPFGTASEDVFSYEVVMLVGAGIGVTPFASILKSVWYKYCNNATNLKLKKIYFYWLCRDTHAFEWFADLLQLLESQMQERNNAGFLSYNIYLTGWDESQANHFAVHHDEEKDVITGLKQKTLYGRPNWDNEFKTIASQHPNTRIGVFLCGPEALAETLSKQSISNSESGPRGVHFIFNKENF
- Sequence (P13498 2-195 partner limits assumed): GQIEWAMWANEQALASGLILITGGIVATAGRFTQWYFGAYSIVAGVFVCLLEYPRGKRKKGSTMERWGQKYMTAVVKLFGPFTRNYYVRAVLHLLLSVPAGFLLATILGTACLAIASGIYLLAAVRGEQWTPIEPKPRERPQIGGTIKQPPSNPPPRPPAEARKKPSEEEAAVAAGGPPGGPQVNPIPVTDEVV
- measurement protocol: NOX2 activity assay: PMA-induced ROS in ATRA-differentiated HL-60 cells (WST-1 or Amplex Red/HRP probe)
- condition notes: WST-1 probe; differentiated HL-60, 200 ng/mL PMA; read-out: Inhibitory ability (NOX2)
- Experimental: NOX activity was evaluated by measuring the reactive oxygen species (ROS) produced by NOX. […] For WST-1, the change in the absorbance at 450 nm was measured, and, for AR, the change in fluorescence signals was measured at 560 nm and 585 nm, respectively for excitation wavelength (Ex) and emission wavelength (Em). The optical signal was measured using the SpectraMax M3 microplate reader from Molecular Devices at 37° C. for 60 minutes. […]
pIC50: −log10 of the molar value.
observable: pIC50

CC12CC(NC(=O)N1c1cccc(C(=O)N3CCc4ccccc4C3)c1)c1ccc(C(F)(F)F)cc1O2 (centres unmarked) [Compound 25i]	5.00 to 6.00
CC12CC(NC(=O)N1c1cccc(C(=O)N3CCc4cccc(C(F)(F)F)c4C3)c1)c1cc(-c3ccoc3)ccc1O2 (centres unmarked) [Compound 28g]	< 5.00
CC1(C)CN(C(=O)c2cccc(N3C(=O)NC4CC3(C)Oc3ccc(-c5ccoc5)cc34)c2)Cc2ccccc21 (centres unmarked) [Compound 28i]	5.00 to 6.00
CC12CC(NC(=O)N1c1cccc(C(=O)N3CCc4ccccc4C3)c1)c1ccccc1O2 (racemic)	5.00 to 6.00
CC12CC(NC(=O)N1c1cccc(C(=O)N3CCc4ccccc4C3)c1)c1cc(-c3ccsc3)ccc1O2 (centres unmarked) [Compound 26a]	> 6.00
CC12CC(NC(=O)N1c1cccc(C(=O)N3CCc4ccccc4C3)c1)c1cccc(-c3ccoc3)c1O2 (centres unmarked) [Compound 26h]	5.00 to 6.00
CC12CC(NC(=O)N1c1cccc(C(=O)N3CCc4ccccc4C3)c1)c1cc(N3CCOCC3)ccc1O2 (centres unmarked) [Compound 26f]	5.00 to 6.00
C[C@@]12C[C@@H](NC(=O)N1c1cccc(C(=O)N3CCc4ccccc4C3)c1)c1ccccc1O2 [Compound 10a]	< 5.00
COc1ccc(-c2ccc3c(c2)C2CC(C)(O3)N(c3cccc(C(=O)N4CCc5ccccc5C4)c3)C(=O)N2)cc1 (centres unmarked) [Compound 26e]	< 5.00
CC12CC(NC(=O)N1c1cccc(C(=O)N3CCc4ccccc4C3)c1)c1cc(Br)ccc1O2 (centres unmarked) [Compound 25a]	< 5.00
C[C@]12C[C@H](NC(=O)N1c1cccc(C(=O)N3CCc4ccccc4C3)c1)c1ccccc1O2 [Compound 10c]	5.00 to 6.00
CC12CC(NC(=O)N1c1cccc(C(=O)NCc3cccnc3)c1)c1ccccc1O2 (racemic)	< 5.00
C[C@]12C[C@H](NC(=O)N1c1cccc(C(=O)NCc3cc(Br)cc(Br)c3)c1)c1ccccc1O2 [Compound 10d]	< 5.00
CC12CC(NC(=O)N1c1cccc(C(=O)N3CCc4c(cccc4C(F)(F)F)C3)c1)c1cc(-c3ccoc3)ccc1O2 (centres unmarked) [Compound 28e]	5.00 to 6.00
CC12CC(NC(=O)N1c1cccc(C(=O)N3CCc4c(cccc4C(F)(F)F)C3)c1)c1cc(Br)ccc1O2 (centres unmarked) [Compound 27e]	5.00 to 6.00
CC12CC(NC(=O)N1c1cccc(C(=O)N3CCc4ccccc4C3)c1)c1ccc(Br)cc1O2 (centres unmarked) [Compound 25h]	5.00 to 6.00
CC12CC(NC(=O)N1c1cccc(C(=O)N3CCc4ccccc4C3)c1)c1c(F)cccc1O2 (centres unmarked) [Compound 25m]	5.00 to 6.00
